Target Entity: functional uptake of serotonin (5-HT) (Rattus norvegicus, UniProt P31652)
Construct: synaptosomes prepared from rat whole brain, hypothalamus, or corpora striata, respectively
Sequence (P31652 whole entry): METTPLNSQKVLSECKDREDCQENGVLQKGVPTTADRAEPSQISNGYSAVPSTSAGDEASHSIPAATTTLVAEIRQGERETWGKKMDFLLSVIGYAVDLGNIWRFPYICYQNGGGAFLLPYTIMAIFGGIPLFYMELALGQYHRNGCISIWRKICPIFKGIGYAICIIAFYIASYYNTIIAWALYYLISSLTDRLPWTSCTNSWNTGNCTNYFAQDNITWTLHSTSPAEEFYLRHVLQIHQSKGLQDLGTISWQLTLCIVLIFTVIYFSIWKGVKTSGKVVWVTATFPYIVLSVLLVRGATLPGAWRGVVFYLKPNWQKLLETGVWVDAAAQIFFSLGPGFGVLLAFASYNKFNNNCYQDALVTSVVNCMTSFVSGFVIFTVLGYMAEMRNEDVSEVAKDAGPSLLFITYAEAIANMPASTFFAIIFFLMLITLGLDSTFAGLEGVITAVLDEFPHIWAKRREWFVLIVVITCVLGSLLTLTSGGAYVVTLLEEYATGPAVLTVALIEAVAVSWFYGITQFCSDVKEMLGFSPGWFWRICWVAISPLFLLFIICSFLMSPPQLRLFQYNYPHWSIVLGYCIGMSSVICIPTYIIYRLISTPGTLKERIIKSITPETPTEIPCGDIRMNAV
Protocol Notes: Inhibition of functional uptake of serotonin (5-HT) into synaptosomes from rat whole brain
Readout Type: IC50

GET /values?readout=IC50&item= CC(C)(O)C[C@H](N)C1(c2ccc(Cl)cc2)CCC1 [2-(S)-OH-DDMS]
670 nM

GET /values?readout=IC50&item= CC(C)(O)C[C@@H](N)C1(c2ccc(Cl)cc2)CCC1 [2-(R)-OH-DDMS]
7.2 nM

GET /values?readout=IC50&item= CN[C@@H](CC(C)(C)O)C1(c2ccc(Cl)cc2)CCC1 [2-(S)-OH-DMS]
5400 nM

GET /values?readout=IC50&item= CN[C@H](CC(C)(C)O)C1(c2ccc(Cl)cc2)CCC1 [2-(R)-OH-DMS]
22 nM
